- SYSTEM NAME: T1, mouse PCSK9 (mouse, UniProt Q80W65 35-694, limits assumed)
- T1 construct: also called mPCSK9; PCSK9 mouse
- T1 sequence (Q80W65 35-694 limits assumed): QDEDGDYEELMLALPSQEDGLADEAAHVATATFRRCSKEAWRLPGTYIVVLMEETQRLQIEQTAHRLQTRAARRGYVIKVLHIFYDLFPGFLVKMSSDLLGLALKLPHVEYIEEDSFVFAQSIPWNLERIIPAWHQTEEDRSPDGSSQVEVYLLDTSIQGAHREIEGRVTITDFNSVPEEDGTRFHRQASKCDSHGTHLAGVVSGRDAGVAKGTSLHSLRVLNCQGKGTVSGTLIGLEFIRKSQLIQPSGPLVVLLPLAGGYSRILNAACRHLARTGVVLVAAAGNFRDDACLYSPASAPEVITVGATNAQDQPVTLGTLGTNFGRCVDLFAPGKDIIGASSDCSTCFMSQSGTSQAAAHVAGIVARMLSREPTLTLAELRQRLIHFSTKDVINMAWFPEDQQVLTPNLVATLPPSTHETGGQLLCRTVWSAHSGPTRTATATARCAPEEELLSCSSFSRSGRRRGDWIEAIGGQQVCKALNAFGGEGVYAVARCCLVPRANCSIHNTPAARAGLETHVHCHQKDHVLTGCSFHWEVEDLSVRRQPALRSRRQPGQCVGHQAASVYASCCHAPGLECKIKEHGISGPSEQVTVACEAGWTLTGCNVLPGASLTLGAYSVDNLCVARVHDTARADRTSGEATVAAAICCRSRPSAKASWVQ
- PROCEDURE TEXT: ProteOn SPR, captured antibody, pH 5.8;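 further: antibodies captured on a GLC chip coated with anti-human Fc, rate constants from a 1:1 Langmuir fit of the sensorgrams, Kd derived from the fitted rates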
pKd: −log10 of the molar value.
Let's look at some binders and their measured pKd.
RESULT TYPE: pKd

BINDER	MEASURED
CL-148219 (antibody, V domains shown, NLT motif in heavy chain framework 3 confirmed N-glycosylated by mass spectrometry, Human antibody, captured through anti-human Fc in the SPR assay) VH: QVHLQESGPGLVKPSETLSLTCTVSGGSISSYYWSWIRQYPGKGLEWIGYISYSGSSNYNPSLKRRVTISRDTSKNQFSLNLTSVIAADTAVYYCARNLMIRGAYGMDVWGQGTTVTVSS VL: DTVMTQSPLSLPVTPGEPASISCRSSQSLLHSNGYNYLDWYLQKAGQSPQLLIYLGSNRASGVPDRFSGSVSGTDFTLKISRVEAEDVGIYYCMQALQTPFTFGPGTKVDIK	9.16
CL-148219 QLT mutant (antibody, V domains shown) VH: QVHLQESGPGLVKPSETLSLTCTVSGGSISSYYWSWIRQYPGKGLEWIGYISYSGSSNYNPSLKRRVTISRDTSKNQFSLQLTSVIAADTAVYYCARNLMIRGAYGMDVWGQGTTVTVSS VL: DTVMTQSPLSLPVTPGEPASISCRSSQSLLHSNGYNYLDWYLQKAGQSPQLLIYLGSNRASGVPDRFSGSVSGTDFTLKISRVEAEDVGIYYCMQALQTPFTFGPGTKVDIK	8.84
CL-274698 (antibody, V domains shown, Human antibody with a kappa light chain, derived from a PCSK9 knockout mouse) VH: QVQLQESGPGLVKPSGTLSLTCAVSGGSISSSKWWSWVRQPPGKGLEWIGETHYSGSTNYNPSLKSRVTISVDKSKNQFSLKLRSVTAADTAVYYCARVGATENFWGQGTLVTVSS VL: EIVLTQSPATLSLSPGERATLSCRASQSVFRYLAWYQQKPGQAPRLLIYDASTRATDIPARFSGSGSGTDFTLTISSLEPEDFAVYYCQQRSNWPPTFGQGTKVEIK	9.99
CL-274711 (antibody, V domains shown, Human antibody with a kappa light chain, generated by immunising a PCSK9 knockout mouse) VH: QVQLQESGPGLVKPSQTLSLTCTVSGGSISSGGYYWSWIRQHPGKGLEWIGHIFYSGSTYYNPSLKSRVTISVDTSKNQFSLKLNSVTAADTAVYYCASEGGYYDIPDVWGQGTTVTVSS VL: EIVLTQSPATLSLSPGERATLSCRASQSVSNYLAWYQQKPGQAPRLLISDASNRATGIPARFSGSGSGTDFTLTISSLEPEDFAIYYCQQRSNWPLTFGGGTKVEIK	8.90
CL-148489 (antibody, V domains shown, Human antibody with a kappa light chain) VH: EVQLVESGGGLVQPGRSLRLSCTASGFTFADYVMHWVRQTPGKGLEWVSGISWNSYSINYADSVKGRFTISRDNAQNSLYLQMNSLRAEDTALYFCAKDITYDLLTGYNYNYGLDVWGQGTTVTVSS VL: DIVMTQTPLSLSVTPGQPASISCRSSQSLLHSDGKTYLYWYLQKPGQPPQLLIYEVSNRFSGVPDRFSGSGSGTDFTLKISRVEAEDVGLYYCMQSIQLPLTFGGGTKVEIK	9.34
